system: Echinochloa crus-galli; experiment: Herbicidal activity against Echinochloa crus-galli (barnyard grass) at 50 g a.i./a measured after 2 weeks; assay type: functional
Below is a list of entries, each paired with its recorded Activity value.
Answer in %, number only, no unit symbol.

Examples with answers:
{"COMPOUND": "CCCCNC(=O)c1nc(C)c(C)nc1C(=O)Nc1cc(C)ccc1C", "Activity, %": 80}
{"COMPOUND": "Cc1ccc(C)c(NC(=O)c2nc(C)c(C)nc2C(=O)NCCC(C)C)c1", "Activity, %": 70}
{"COMPOUND": "CCCNC(=O)c1nc(C)c(C)nc1C(=O)Nc1cc(C)ccc1C", "Activity, %": 50}
{"COMPOUND": "CCC(C)NC(=O)c1nc(C)c(C)nc1C(=O)Nc1cc(C)ccc1C (stereo unspecified)", "Activity, %": 70}

Report Activity for "Cc1ccc(C)c(NC(=O)c2nc(C)c(C)nc2C(=O)NCC(C)C)c1" tested on Echinochloa crus-galli.
90

Report Activity for "Cc1ccc(C)c(NC(=O)c2nc(C)c(C)nc2C(=O)NC(C)C)c1" tested on Echinochloa crus-galli.
0
